target: Human FXR full length (Homo sapiens); construct: Human FXR full length and RXR full length was obtained from Ronald Evans' laboratory; expressed in transfected cells; host or cells: CV-1 cells; assay: FXR activity screen, luciferase reporter in transfected CV-1 cells; format: cell-based; settings: second round; CV-1 cells, 24 hours; read-out: 2nd RND EC50
Sequence (Q96RI1 1-476 isoform Q96RI1-1): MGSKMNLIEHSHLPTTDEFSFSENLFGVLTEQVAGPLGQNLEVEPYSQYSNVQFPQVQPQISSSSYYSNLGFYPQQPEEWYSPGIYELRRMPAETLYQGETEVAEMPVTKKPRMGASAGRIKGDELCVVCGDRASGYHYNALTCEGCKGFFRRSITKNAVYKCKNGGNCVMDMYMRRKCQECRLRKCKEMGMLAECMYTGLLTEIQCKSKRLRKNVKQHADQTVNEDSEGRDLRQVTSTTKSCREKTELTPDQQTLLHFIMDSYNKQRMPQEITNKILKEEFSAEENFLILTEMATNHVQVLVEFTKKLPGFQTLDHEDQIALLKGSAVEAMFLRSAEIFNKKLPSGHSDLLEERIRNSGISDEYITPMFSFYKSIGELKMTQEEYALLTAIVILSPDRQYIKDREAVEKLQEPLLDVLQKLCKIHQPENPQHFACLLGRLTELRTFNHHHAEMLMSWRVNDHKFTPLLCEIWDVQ
Sequence (P19793 whole entry partner): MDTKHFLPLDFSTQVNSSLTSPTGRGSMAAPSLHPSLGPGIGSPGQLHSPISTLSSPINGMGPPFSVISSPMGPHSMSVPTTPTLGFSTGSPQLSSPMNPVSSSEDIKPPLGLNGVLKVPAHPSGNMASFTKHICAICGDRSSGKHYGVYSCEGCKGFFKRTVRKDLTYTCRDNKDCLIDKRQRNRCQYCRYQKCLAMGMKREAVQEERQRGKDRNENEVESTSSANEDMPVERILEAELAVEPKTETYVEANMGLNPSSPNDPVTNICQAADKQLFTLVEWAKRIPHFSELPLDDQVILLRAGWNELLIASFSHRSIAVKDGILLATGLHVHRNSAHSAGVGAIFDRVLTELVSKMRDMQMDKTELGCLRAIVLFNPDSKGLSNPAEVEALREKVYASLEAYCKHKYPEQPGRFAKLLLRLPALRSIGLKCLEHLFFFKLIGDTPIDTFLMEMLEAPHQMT
measure-name: EC50 (µM)
Provide only the numeric value, understood in µM.

Recorded EC50 for COC(=O)/C=C/c1cc(F)cc(N(Cc2ccc(-c3ccc(N(C)C)cc3)cc2)C(=O)c2ccccc2)c1 , please?
7.4

Recorded EC50 for [2H]C(c1ccc(-c2ccc3c(cnn3C)c2)cc1)N(C(=O)[C@@H]1C[C@@H]2CC[C@H]1C2)c1cc(F)cc(/C=C/C(=O)OC)c1 (stereo partly shown) , please?
2.7

Recorded EC50 for [2H]C(c1ccc(-c2ccc3c(cnn3C)c2)cc1F)N(C(=O)c1ccccc1)c1cccc(/C=C/C(=O)OC)c1 (stereo not shown) [NSSK00093] , please?
0.511

Recorded EC50 for COC(=O)/C=C/c1cc(F)cc(N(Cc2ccc(-c3ccc(N(C)C)cc3)cc2Cl)C(=O)C2CCCCC2)c1 , please?
1.3
